- procedureSummary: yeast display, Sf9 membrane polyspecificity reagent, FACS + sequencing; frameworks hold sequencing errors
measuredParameter: polyreactivity (PSR sort gate)

Below, 4 sequences whose answers are already recorded.
{"querySequence": "QVQLVESGGGLVQAGGSLRLSCAASGGTFKRYAMGWYRQAPGKERELVAAISGRGGSTYYADSVKGRFTISRDNAKTTVYLQMNSLKPEDTAVYYCNAGGSPQFYGRSKGDYWGQATQVTVSS", "measuredParameter": "polyreactivity (PSR sort gate)", "result": "high polyreactivity"}
{"querySequence": "QVQLVESGGGLVQAGGSLRLSCAASGGTFPRYAMGWYRQAPGKERELVAAINQSGGRTYYADSVKGRFTISRDNAKNTVYLQMNSLKPEDTADYYCAAGYGWRTSYLSYGYWGQGTQVTVSS", "measuredParameter": "polyreactivity (PSR sort gate)", "result": "high polyreactivity"}
{"querySequence": "QVQLVESGGGLVQAGGSLRLSCAASGRILVYYAMGWYRQAPGKERELVAAIRSSGSSTYYSDSVKGRFTISRDNAKNTVYLQMNSLKPEDTAVYYCAAYYYIGGKYGSQVYEYDYWGQGTQVTVSS", "measuredParameter": "polyreactivity (PSR sort gate)", "result": "low polyreactivity"}
{"querySequence": "KVQLLQTGRGLVQAGGSLRISCAASGRLFWYSDLVWYRQAPGKESELVAAISQRGGSTYYADSVKGSFTISRDNAKNTVYLQMISLKPEDTAGYYCNADFWWAYYPWEYDYWGQGTLVTVSS", "measuredParameter": "polyreactivity (PSR sort gate)", "result": "high polyreactivity"}

Proceed to the following item.
The sequence QVQLVESGGGLDQEGGSLRLSCAASGSTFAVHVMGWYRHAPGKERELVATITYRDGRTYYADSVKGRFTISRDNANNTVYLQMNSLKPEDTAVYYCAADWYTTYDYWGQGTQVTVSS showed polyreactivity (PSR sort gate) equal to low polyreactivity

====

- procedureSummary: yeast display, Sf9 membrane polyspecificity reagent, FACS + sequencing; frameworks hold sequencing errors
measuredParameter: polyreactivity (PSR sort gate)

{"querySequence": "QVQLVESGGGLVQAGGSLRLSCAASGRIFRWNAMGWYRQAPGKERDLVAAISWRGANTYYADSVKGRFTISRDNAKNTVYLQMNSLKPEDTAVYYCARYSYRGSQSDSWGQGTQVTVSS", "result": "high polyreactivity"}
{"querySequence": "QVQLVESGGGLVQAGGSLRLSCAASASTFVYNAKGWYRQAPGKERELVASITRSGSSTYYADSVKGRFTISRDNAKNTVYLQMNSLKPEDTAVYYCDVRYSVLSNYRYYYWGQGTQVTVSS", "result": "low polyreactivity"}
{"querySequence": "QVQLVESGGVLVQAGGSLRLSCAASGRTFYYYAMGWYRQAPGKERELVASISWDGGNTYYADSVKGRFTISRDTAKNTVYLHMNSLKPEDTAVYYCNRRFYHKDDYWGQGTQVTVSS", "result": "high polyreactivity"}
{"querySequence": "QVQLVESGGGLVQAGGSLRLSCAASGSIFYGFDMGWYRQAPGKERELVATISWSSGSSTYYADTVKGRFTISRDNAKNTVYLQMNSLKPEETAVYYCAVDFAIGYRYQGRVDYWGQGTQVTVSS", "result": "low polyreactivity"}
{"querySequence": "QVQLVESGGGLVQAGGSLRLSCAASGFTFSPNAMGWYRQAPGKERELVAAIDWSGDRTYYADSVKGRFTISRDNAKNTVYLQMNSLKPEDTAVEYCNVVRRSPGDYSYYYWGQGTQVTVSS", "result": "low polyreactivity"}
{"querySequence": "QVQLVESGGGLVQAGGSLRLSCAASGIIFQWYAMGWYSQAPGKERELVAAINSDGSTYYADSVKGRFTISRDNAKNTVYLQMNSLIPEDTAVYYCAADFIPLIGFDYWGQGTQVTVSS", "result": "low polyreactivity"}

Sure, the documented polyreactivity (PSR sort gate) for QVQLVESGGGLVQAGGTLRLSCAASGSTFPRNTMGWYRHEPGKERELVAAISSSGVRTYYADSVKGRFTISRDNAKNTVYLQMNSLKAEDTAVYYCAAGSQSRDYYYWGQGTLVTVSS is high polyreactivity

Summary for this sequence, PVQLVESGGGLVQAGGSLLLSCAASGRIFSRNAMGWNIQAPGKERELVAAISRSGTSTYYADSVKGRFTSSRDNAKNTVYLQMNSLKPEETAVYYCAADYPAVISIRRYDYWGQGTQLTVSS : polyreactivity (PSR sort gate) is low polyreactivity

The measured polyreactivity (PSR sort gate) associated with QVQLVESGGGLVQAGGSLRLSCAASGRIFGINAMGWYRQGPGKERELVAASRSSDVSTYNADSVKGRFTISRDNAKNTVYLQMNSLKPEDTAVYYCAAAYRTQIYRNEYWGQGTQVTVSS reads low polyreactivity

Memo: QVQHVESGGGLVQAGGSLRLSCAASGRIFYFNAMGWYRPAPGKERELVAAISSSSGSTNYADSVQGRFTISRDNAKNTVYLQMNSLKPEATAVYYCAADGYYQDYTFEYDYWGQGTQVTVSS , reported polyreactivity (PSR sort gate): low polyreactivity

Origin of measurements: the nanobody polyreactivity screen of Harvey et al. (2022)
